- Measured on: T1, human IGF2^1-67 (mature insulin-like growth factor 2) (human, UniProt P01344 25-91, biotinylated (site not stated) where immobilised on the chip (Tables 1-4))
- T1 construct: mature; also called mature IGF2; biotinylated IGF2
- Method notes: SPR kinetic, biotin-IGF2 on chip
Readings of koff for the listed binders
Value expressed in s⁻¹; do not type the unit.

See these solved cases before continuing.
domain 11^WT + 312G (HI-VKLM) (receptor, See m5; Protein quality poor) MKSNEHDDCQVTNPSTGHLFDLSSLSGRAGFTAAYSEKGLVYMSICGENENCPPGVGACFGQTRISVGKANKRLRYVDQVLQLVYKDGSPCPSKSGLSYKSVISFVCRPEAGPTNRPMLISLVKLMCTLFFSWHTPLACEQATECSV = 0.15
domain 11^AB3 Q1569R (receptor, See m5; also called AB3 + 73E (CD-Q1569R)) MKSNEHDDCQVTNPSTGHLFDLSSLSGRAGFTAAYSKSGVVYMSICGENENCPPGVGACFGRTRISVGKANKRLRYVDQVLQLVYKDGSPCPSKSGLSYKSVISFVCRPEAGPTNRPMLISLDKQTCTLFFSWHTPLACEQATECSV = 0.031

Which measured koff value corresponds to domain 11^WT + 23D (HI-HFQS) (receptor, See m5; Protein quality poor based on absorption spectra) MKSNEHDDCQVTNPSTGHLFDLSSLSGRAGFTAAYSEKGLVYMSICGENENCPPGVGACFGQTRISVGKANKRLRYVDQVLQLVYKDGSPCPSKSGLSYKSVISFVCRPEAGPTNRPMLISLHFQSCTLFFSWHTPLACEQATECSV ? 0.065
